Molecular target: hSTING-R232 (Homo sapiens (Human), UniProt Q86WV6, H232R)
Sequence (Q86WV6 140-379 H232R): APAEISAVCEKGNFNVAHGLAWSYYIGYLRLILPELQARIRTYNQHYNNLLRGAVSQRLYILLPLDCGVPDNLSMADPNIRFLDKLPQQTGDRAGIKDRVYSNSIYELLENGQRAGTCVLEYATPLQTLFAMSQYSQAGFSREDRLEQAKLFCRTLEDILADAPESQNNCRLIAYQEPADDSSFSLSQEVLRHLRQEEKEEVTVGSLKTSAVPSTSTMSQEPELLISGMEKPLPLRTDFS
Test: STING differential scanning fluorimetry (DSF) assay, WT human STING
Details: WT (R232) human STING aa140-379, net shift in melting temperature
attributeMeasured: WT_DSF_hSWAT Tm Shift (° C.)

Reference set, count: 10
# smiles, WT_DSF_hSWAT Tm Shift (° C.)
measured = [
    ("CC(C)(C)c1ccc2c(=O)c3ccc(Cl)c(Br)c3n(CC(=O)O)c2c1", "D (“D” > 7° C.)"),
    ("O=C(O)Cn1c2cc(NC3CCNCC3)ccc2c(=O)c2ccc(Cl)c(Cl)c21", "B (“B” = 0-2° C.)"),
    ("COc1c(Cl)ccc2c(=O)c3ccc(C(C)(C)C)cc3n(CC(=O)O)c12", "D (“D” > 7° C.)"),
    ("C[C@@H](C(=O)O)n1c2ccccc2c(=O)c2ccc(Cl)c(Cl)c21", "A (“A” < 0° C.)"),
    ("COc1cc2c(=O)c3ccc(Cl)c(OC)c3n(CC(=O)O)c2cc1C(C)C", "C (“C” = 2-7° C,)"),
    ("COc1c(Cl)ccc2c(=O)c3cc(Br)c(C(C)C)cc3n(CC(=O)O)c12", "C (“C” = 2-7° C,)"),
    ("COc1c(Cl)ccc2c(=O)c3ccc(S(C)(=O)=O)cc3n(CC(=O)O)c12", "B (“B” = 0-2° C.)"),
    ("COc1c(Cl)ccc2c(=O)c3ccc(Nc4cccc5ccccc45)cc3n(CC(=O)O)c12", "D (“D” > 7° C.)"),
    ("COc1c(Cl)ccc2c(=O)c3ccc(-c4ccoc4)cc3n(CC(=O)O)c12", "D (“D” > 7° C.)"),
    ("COc1cccc2c(=O)c3ccccc3n(CC(=O)O)c12", "A (“A” < 0° C.)"),
]

Please state WT_DSF_hSWAT Tm Shift (° C.) for every compound in the list that follows.
1. O=C(O)Cn1c2cc(Nc3ccccc3)ccc2c(=O)c2ccc(Cl)c(Cl)c21
2. C[C@H](O)COc1c(Cl)ccc2c(=O)c3ccccc3n(CC(=O)O)c12
3. O=C(O)Cn1c2cc(-c3cccc(Cl)c3)ccc2c(=O)c2ccc(Cl)c(Cl)c21
4. Cc1ccc(-c2ccc3c(=O)c4ccc(Cl)c(Cl)c4n(CC(=O)O)c3c2)cc1
5. O=C(O)Cn1c2cc(Cl)ccc2c(=O)c2ccc(Nc3ccccc3)cc21
6. O=C(O)Cn1c2ccccc2c(=O)c2ccc(Cl)c(Oc3ccccc3)c21

D (“D” > 7° C.)
A (“A” < 0° C.)
C (“C” = 2-7° C,)
C (“C” = 2-7° C,)
C (“C” = 2-7° C,)
B (“B” = 0-2° C.)
